# Test system: wheat (Triticum aestivum)
# experimental_details: Test A postemergence
# Assay type: in vivo
# condition_set: 500 g ai/ha, postemergence; visual injury, 0 to 100 scale (0 no effect, 100 complete control), approx. 10 d
observation_type: Plant response rating, Wheat
Answers are plain numbers.

Consider the following illustrative entries.
>>> endpoint_result("CC(C)Oc1cccc(C2CN(C)C(=O)C2C(=O)Nc2cccc(F)c2F)c1 (stereo not shown)")
60
>>> endpoint_result("O=C1NCC(c2ccc(I)cc2)C1C(=O)Nc1ccccc1Cl (racemic)")
0
>>> endpoint_result("Cc1cccc(C2CN(C)C(=O)C2C(=O)Nc2ccccc2F)c1 (stereo not shown)")
60
>>> endpoint_result("CN1CC(c2ccc(C(C)(F)F)cc2)C(C(=O)Nc2ccc(F)cc2F)C1=O (stereo not shown)")
50
>>> endpoint_result("Cc1ccc(C2CNC(=O)C2C(=O)Nc2ccc(F)cc2F)cc1C(F)(F)F (racemic)")
10

Batch request: Plant response rating, Wheat for each of the following molecules.
1. Cc1ccc(C2CNC(=O)C2C(=O)Nc2ccccc2F)cc1C(F)(F)F (racemic)
2. Cc1ccc(C2CN(C)C(=O)C2C(=O)Nc2ccc(F)cc2F)cc1 (stereo not shown)
3. O=C1NCC(c2cccc3ccccc23)C1C(=O)Nc1cccc(F)c1F (racemic)
4. Cc1ccc(C2CN(C)C(=O)C2C(=O)Nc2ccccc2S(C)(=O)=O)cc1 (stereo not shown)
5. O=C1NCC(c2cccc(Br)c2)C1C(=O)Nc1ccccc1F (racemic)

1: 40; 2: 70; 3: 0; 4: 70; 5: 30
